Tested on: MALME-3M melanoma
Test: NCI-60 one-dose screen, 48 h (100 = growth as untreated, 0 = no growth, -100 = all killed)
Conditions: 10 µM unless noted
Experimental: Cells are grown in 96 well plates and exposed to the test compound for 48 hours. Compounds are tested at a single concentration, which is 10^-5 M for most compounds. The reported endpoint is percent growth (GI% or GIPRCNT), where numbers from 0 - 100% represent growth inhibition, and numbers from -100% - 0 represent cell death. For example, a value of 40 represents 60% growth inhibition. A value of 0 means no net growth occurred over the course of the experiment. […]
The panel holds about 83,000 compounds, 20% with a hit somewhere; the sample as a whole holds those more often.
Classification field: enter Satisfied for growth values not below 90%, Not satisfied for values below it.

Field: example entries. Status: answers known.
| input smiles | assigned class |
| --- | --- |
| Cn1ccnc1C(=O)/C=C/c1ccc(C(=O)Nc2ccccc2F)cc1 | Not satisfied |
| CCOC(=O)/C=C1\S/C(=N\Nc2cc(=O)[nH]c3ccc(OC)cc23)N(c2ccccc2)C1=O | Satisfied |
| Nc1c(C(=O)c2ccc(Cl)cc2)sc(Nc2ccccc2)c1-c1nc2ccccc2s1 | Not satisfied |

Proceed to the following item.
Quick check: does C#Cc1ccc(NC(=O)Cc2ccc(/C=C/C(=O)c3nccn3C)cc2)cc1 have growth greater than or equal to 90%? Satisfied

---

Test system: HCT-116 colon
Assay: NCI-60 one-dose screen, 48 h
Conditions: 10 µM unless noted
Description: Growth inhibition of the HCT-116 human tumor cell line is measured as a screen for anti-cancer activity. Cells are grown in 96 well plates and exposed to the test compound for 48 hours. Compounds are tested at a single concentration, which is 10^-5 M for most compounds. The reported endpoint is percent growth (GI% or GIPRCNT), where numbers from 0 - 100% represent growth inhibition, and numbers from -100% - 0 represent cell death. For example, a value of 40 represents 60% growth inhibition. […]
The panel holds about 83,000 compounds, 20% with a hit somewhere; the sample as a whole holds those more often. Active and inactive are the calls of the source. Rule for the calls: active = growth percent below 10; inactive = the rest.
Give your call using only these classes: active, inactive

Field: example entries. Status: answers known.
| compound | assigned class |
| --- | --- |
| COc1ccc(C2=NN(C=O)C(c3ccc(Oc4nc5c(c(=O)n(C)c(=O)n5C)n4C)c(OC)c3)C2)cc1 (stereo not given) | inactive |
| Cc1cc(N2CCOCC2)nc(N(CCCNc2ccnc3cc(Cl)ccc23)Cc2ccc3c(c2)OCO3)n1 | active |
| Cc1nn(-c2ccccc2)c(Oc2ccccc2)c1/C=N/NC(=O)Cn1c(=O)sc2ccccc21 | inactive |

Test call, this compound: Cc1cccc(C)c1NC(=O)Nc1ccccc1 inactive

Test call, this compound: O=c1n(C2OC(CO)C(O)C2O)ccc2nccn12 (stereo not given) inactive

Test call, this compound: O=C(CN1C(=O)NC2NC(=O)NC21)N/N=C/c1cccc([N+](=O)[O-])c1 (stereo not given) inactive

Test call, this compound: Oc1ccc(C(c2ccc(O)cc2)c2ccc(Cl)cn2)cc1 inactive

---

Tested on: U251 CNS
Test: NCI-60 one-dose screen, 48 h (100 = growth as untreated, 0 = no growth, -100 = all killed)
Conditions: 10 µM unless noted
The panel holds about 83,000 compounds, 20% with a hit somewhere; the sample as a whole holds those more often.
property label: growth (%)
Unit % implied. Number only.

// below: answered compounds
| compound | system | unit abbreviation | growth |
| --- | --- | --- | --- |
| COc1ccc(-c2ccc(-c3ccc(C(=N)N)o3)o2)cc1 | U251 CNS | % | -29.3 |
| Nc1nc(Nc2ccc([N+](=O)[O-])cc2O)nc(C(Cl)(Cl)Cl)n1 | U251 CNS | % | 73.3 |

Kindly note the recorded growth for COc1cc2cc(Oc3ccc(NC(=O)Nc4ccc(F)c(C(F)(F)F)c4)cc3)c(C)nc2cc1OCCN1CCCCC1 , which is -85.3

Kindly note the recorded growth for O=C(OCc1ccc2c(Br)cc(Br)c(O)c2n1)N1CCN(C(=O)c2cc3ccccc3[nH]2)CC1 , which is 12.9

Kindly note the recorded growth for COc1nc2ccccc2cc1/C=C1/C=C(c2ccccc2)NC1=O , which is 31

Kindly note the recorded growth for O=C(CSc1nnc(-c2ccc(Cl)c(Cl)c2)n1-c1ccccc1)Nc1ccc(C(=O)/C=C/c2ccc(Cl)cc2)cc1 , which is 84

Kindly note the recorded growth for CC1=C(C(=O)OCc2ccccc2)C(c2ccc3c(c2)OCO3)n2c(nc3ccccc32)N1 (centres undefined) , which is 36.3

Kindly note the recorded growth for O=C(/C=C\c1ccc(O)c(O)c1)c1ccccc1O , which is 69

Kindly note the recorded growth for N/C(=N\c1nc2ccccc2s1)NC(=O)Nc1ccccc1 , which is 21

Kindly note the recorded growth for Cc1c(N2CCCCC2)[nH]c2ccccc12 , which is 101

Kindly note the recorded growth for Brc1ccc(-c2nn(-c3ccccc3)cc2-c2nn[nH]n2)s1 , which is 87.8
